target: Mycobacterium thermoresistible (Mtr) LpqY (Mycolicibacterium thermoresistibile, UniProt G7CES0); assay type: binding; details: quadruplicate, new batch of LpqY
Sequence (G7CES0 29-471): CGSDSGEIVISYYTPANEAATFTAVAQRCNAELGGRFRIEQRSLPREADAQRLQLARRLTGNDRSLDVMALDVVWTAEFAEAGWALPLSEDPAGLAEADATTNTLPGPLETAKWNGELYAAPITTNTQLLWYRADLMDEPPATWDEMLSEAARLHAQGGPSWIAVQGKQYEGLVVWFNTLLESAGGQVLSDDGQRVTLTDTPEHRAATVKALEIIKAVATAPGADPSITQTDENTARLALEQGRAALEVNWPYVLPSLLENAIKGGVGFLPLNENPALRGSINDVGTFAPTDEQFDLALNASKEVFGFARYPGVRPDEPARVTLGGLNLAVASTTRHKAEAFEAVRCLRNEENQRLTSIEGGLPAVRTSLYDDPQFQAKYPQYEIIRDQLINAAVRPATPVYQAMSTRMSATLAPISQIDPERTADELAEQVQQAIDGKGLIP
RECORDED_ENDPOINT: Validation binding score (MST)
Answers are plain numbers.

- MOLECULE: "C[C@H]1c2cccc(O)c2C(=O)C2=C(O)[C@]3(O)C(=O)C(C(N)=O)=C(O)[C@@H](N(C)C)[C@@H]3[C@@H](O)[C@@H]21 [MMV000011, Doxycycline, reference compound]"
  OBSERVED_MEASUREMENT: 6.5
- MOLECULE: "CS(=O)(=O)c1ccccc1C(=O)N(Cc1ccccc1)c1ccccc1 [MMV688798]"
  OBSERVED_MEASUREMENT: 1.3
- MOLECULE: "COc1ccccc1C(C)NCC(=O)Nc1cc(C(F)(F)F)ccc1Cl (stereo not shown) [MMV020321]"
  OBSERVED_MEASUREMENT: 1.9

Quick one: give me Validation binding score (MST) for each item below, same order please.
1. O=C(Nc1cccc(Cl)c1)c1cnc(N2CCN(c3ccncc3)CC2)c(Cl)c1 [MMV024406]
2. OC[C@H]1O[C@H](O[C@H]2O[C@H](CO)[C@@H](O)[C@H](O)[C@H]2O)[C@H](O)[C@@H](O)[C@@H]1O [Trehalose, α-D-glucopyranosyl-α-D-glucopyranoside, reference compound]

A:
1: 2.3; 2: 8.3

----------
molecular target: Mycobacterium thermoresistible (Mtr) LpqY (Mycolicibacterium thermoresistibile, UniProt G7CES0); type: binding; settings: single dose MST screen against LpqY
Hi there, I'd appreciate the recorded Pathogen Box screen signal/noise ratio for every entry that follows.
Answers are plain numbers.

- COMPOUND: "Cn1ccnc1CNCCS(=O)(=O)c1cccc(Nc2ccc(-c3cccc(F)c3)cn2)c1"
  Pathogen Box screen signal/noise ratio: 0.0
- COMPOUND: "C[C@H](C(N)=O)N1CCCC[C@H]1c1ccc(OCc2cccc(F)c2)cc1"
  Pathogen Box screen signal/noise ratio: 0.212
- COMPOUND: "CC(C)C(Oc1cccc2ccccc12)C(=O)O (centres unmarked)"
  Pathogen Box screen signal/noise ratio: 0.9
- COMPOUND: "Nc1nc(N)c2c3c(sc2n1)CN(Cc1ccccc1)CC3"
  Pathogen Box screen signal/noise ratio: 2.8
- COMPOUND: "O=C(Cn1ccnc1[N+](=O)[O-])NCc1ccccc1"
  Pathogen Box screen signal/noise ratio: 2.9

Quick one: give me Pathogen Box screen signal/noise ratio for each item below, same order please.
1. O=C(Nc1ccccc1)c1ccc(-c2cc3ccncc3cc2OC2CCNCC2)s1
2. N#Cc1nc(-c2ccccc2)oc1S(=O)(=O)c1ccc(Cl)cc1
3. Nc1nccc2ccc(Oc3ccncc3)cc12
4. O=C(Nc1ccnc(-c2cccnc2)n1)c1cc(C(F)(F)F)cc(C(F)(F)F)c1
5. CCS(=O)(=O)N(Cc1ccco1)Cc1cc2ccc(C)cc2nc1O

A:
2.8
0.6
1.4
2.8
-0.167

----------
biological target: Mycobacterium thermoresistible (Mtr) LpqY (Mycolicibacterium thermoresistibile, UniProt G7CES0); assay type: binding; conditions: compound 100 μM, LpqY 500 nM, 10% DMSO, duplicate
RECORDED_ENDPOINT: Screen signal/noise ratio (MST S/N)

- MOLECULE: "CNC(=O)c1nn(C)c2c1C(C)(C)Cc1cnc(Nc3ccc(N4CCN(C)CC4)cc3)nc1-2 [MMV676602, Milciclib, reference compound]"
  OBSERVED_MEASUREMENT: 9.5
- MOLECULE: "COc1ccc(OC(C)C(=O)Nc2ccc(Cl)cc2C)cc1 (stereo not shown)"
  OBSERVED_MEASUREMENT: 5.5
- MOLECULE: "COc1cc(C2=NCCN2)cc2cc(-c3ccc(C4=NCCN4)cc3)oc12"
  OBSERVED_MEASUREMENT: 12.6

Q: I have this molecule here, `COc1cc(C2=NCCN2)ccc1-c1cn(-c2cccc(C3=NCCN3)c2)nn1` , and I need its recorded Screen signal/noise ratio (MST S/N).
A: 8.0

Origin of the recorded values: paper PMC9579956
